# Lookup of reported inhibition keyed by entry
- Protocol Text: TROY pathway blockers in reporter cells – Q293 LMP1-TROYcd cells, NF-kB luciferase, uHTS, primary screen (AID 1347056)
- Settings: 4 h, at 10 µM, hits give high values
Among all 360,000 compounds or so, about 3,600 (1%) were called active. The entries come from a sample that favours actives as a whole.
# number only, unit % dropped from output

The examples below pair each entry with its known result.
Prompt line: Can you share its inhibition? I mean this molecule: CCCCC(NS(=O)(=O)c1ccc(C)cc1)C(=O)Oc1ccc2c3c(c(=O)oc2c1)CCC3 (stereo not drawn)
Response line: 69.9

Prompt line: Can you share its inhibition? I mean this molecule: "Cc1cc(C(=O)CSc2nc(N)cc(=O)[nH]2)c(C)n1-c1cccc(F)c1"
Response line: -1.75

Prompt line: Can you share its inhibition? I mean this molecule: "O=C(NCCOc1ccccc1F)Nc1ccc(Br)cc1"
Response line: -33.8

Prompt line: Can you share its inhibition? I mean this molecule: "O=C1CSC(=O)N1CCOCCN1C(=O)CSC1=O"
Response line: -11.1

Prompt line: Can you share its inhibition? I mean this molecule: "COc1ccc(S(=O)(=O)N2CCN(C)CC2)c(C)c1"
Response line: -7.28

Further cases:
Prompt line: Can you share its inhibition? I mean this molecule: "CCN(CC)C(=O)c1nc[nH]c1C(=O)N(C)Cc1ccccc1"
Response line: -9.82

Prompt line: Can you share its inhibition? I mean this molecule: "Cc1cc(C(=O)COC(=O)C2CC2)c(C)n1-c1ccc(F)cc1"
Response line: 90.5

Prompt line: Can you share its inhibition? I mean this molecule: "COc1ccc(C(=NN)c2ccc(OC)cc2)cc1"
Response line: -42.8

Prompt line: Can you share its inhibition? I mean this molecule: "O=C(Nc1nnc(COc2ccccc2)s1)Nc1ccccc1F"
Response line: -7.72

Prompt line: Can you share its inhibition? I mean this molecule: "COc1ccc(C(C#N)=C2C=CC(=NO)c3ccccc32)cc1"
Response line: 69.6

Prompt line: Can you share its inhibition? I mean this molecule: "Cc1cc(C(=O)COc2ccccc2Cl)c(C)n1C1CC1"
Response line: -42.6

Prompt line: Can you share its inhibition? I mean this molecule: "N#Cc1c(-c2ccccc2)nc(SCc2cccc(C(F)(F)F)c2)[nH]c1=O"
Response line: 41.2

====

# Lookup of reported inhibition keyed by entry
- Protocol Text: TROY pathway blockers in reporter cells – Q293 LMP1-TROYcd cells, NF-kB luciferase, uHTS, primary screen (AID 1347056)
- Settings: 4 h, at 10 µM, hits give high values
The whole screen tested about 360,000 compounds, of which about 3,600 (1%) were called active. This excerpt belongs to a sample that is enriched for actives.
# number only, unit % dropped from output

The examples below pair each entry with its known result.
Prompt line: Can you share its inhibition? I mean this molecule: "Cc1ccccc1OCCC(=O)OCC(=O)NCCc1ccc(S(N)(=O)=O)cc1"
Response line: 0.01

Prompt line: Can you share its inhibition? I mean this molecule: "O=C(Nn1c(SCc2ccc([N+](=O)[O-])cc2)nc2ccccc2c1=O)c1ccc(F)cc1"
Response line: 36.3

Prompt line: Can you share its inhibition? I mean this molecule: CC1O[C@@H](OC2C(O)C(C)O[C@H](OC(=O)[C@]34CCC(C)(C)C[C@H]3C3=CCC5[C@@]6(C)CC(O)C(O[C@@H]7OC(CO)C(O)[C@@H](O)[C@@H]7O)[C@@](C)(C(=O)O)C6CC[C@@]5(C)[C@]3(CO)CC4)C2O[C@H]2OC(C)[C@@H](O[C@@H]3OCC(O[C@@H]4OC(CO)C(O)[C@H](O)C4O)[C@@H](O)[C@@H]3O)[C@H](O)C2O)C(O)C(O)C1O (stereo partly drawn)
Response line: 5

Further cases:
Prompt line: Can you share its inhibition? I mean this molecule: CC(NC(=O)COC(=O)c1ccc2ccccc2n1)c1ccccc1 (stereo not drawn)
Response line: -0.28

Prompt line: Can you share its inhibition? I mean this molecule: "Cn1cc(/C=C/c2nc3ccccc3c(=O)n2-c2cccc([N+](=O)[O-])c2)c2ccccc21"
Response line: 53.2

Prompt line: Can you share its inhibition? I mean this molecule: "COc1cccc(-c2cc3nc4c(c(N5CCC6(CC5)OCCO6)n3n2)CCCC4)c1"
Response line: 7.88

Prompt line: Can you share its inhibition? I mean this molecule: CCC1Nc2ncnc(N3CCN(c4ccccc4)CC3)c2N(Cc2ccc(Cl)cc2)C1=O (stereo not drawn)
Response line: 18.3

Prompt line: Can you share its inhibition? I mean this molecule: "Cc1nc2ccccc2c(=O)n1NC(=O)c1ccc(Cl)c([N+](=O)[O-])c1"
Response line: 73.3

Prompt line: Can you share its inhibition? I mean this molecule: "CN1CCN(S(=O)(=O)c2cccc(C(=O)Nc3cccc(S(N)(=O)=O)c3)c2)CC1"
Response line: 14.3
